All figures here come from paper PMC6005460.

assay: Solubility of peptides; format: physicochemical; settings: aqueous buffer; PBS buffer pH 7.4, unmodified peptide
Where a SMILES comes first, the peptide text is derived from it.
Assay endpoint: solubility

What does the record list as solubility for CC[C@H](C)[C@H](NC(=O)[C@H](CC(N)=O)NC(=O)[C@@H]1CCCN1C(=O)[C@H](Cc1c[nH]cn1)NC(=O)[C@H](Cc1ccc(O)cc1)NC(=O)[C@H](C)NC(=O)[C@H](Cc1ccccc1)NC(=O)[C@H](Cc1ccc(O)cc1)NC(=O)[C@@H](N)Cc1ccc(O)cc1)C(=O)N1CCC[C@H]1C(=O)NCC(=O)N[C@@H](CC(C)C)C(=O)N[C@@H](Cc1ccc(O)cc1)C(=O)N[C@@H](Cc1ccc(O)cc1)C(=O)N[C@@H](Cc1ccccc1)C(=O)O [BHD1028] (H-YYFAYHPNIPGLYYF-OH) ?
≤ 50 µM
